System: Smo (Mus musculus, UniProt P56726)
Construct: endogenous in cells; host or cells: NIH-3T3 cells stably carrying the Gli reporter plasmid
Sequence (P56726 33-793): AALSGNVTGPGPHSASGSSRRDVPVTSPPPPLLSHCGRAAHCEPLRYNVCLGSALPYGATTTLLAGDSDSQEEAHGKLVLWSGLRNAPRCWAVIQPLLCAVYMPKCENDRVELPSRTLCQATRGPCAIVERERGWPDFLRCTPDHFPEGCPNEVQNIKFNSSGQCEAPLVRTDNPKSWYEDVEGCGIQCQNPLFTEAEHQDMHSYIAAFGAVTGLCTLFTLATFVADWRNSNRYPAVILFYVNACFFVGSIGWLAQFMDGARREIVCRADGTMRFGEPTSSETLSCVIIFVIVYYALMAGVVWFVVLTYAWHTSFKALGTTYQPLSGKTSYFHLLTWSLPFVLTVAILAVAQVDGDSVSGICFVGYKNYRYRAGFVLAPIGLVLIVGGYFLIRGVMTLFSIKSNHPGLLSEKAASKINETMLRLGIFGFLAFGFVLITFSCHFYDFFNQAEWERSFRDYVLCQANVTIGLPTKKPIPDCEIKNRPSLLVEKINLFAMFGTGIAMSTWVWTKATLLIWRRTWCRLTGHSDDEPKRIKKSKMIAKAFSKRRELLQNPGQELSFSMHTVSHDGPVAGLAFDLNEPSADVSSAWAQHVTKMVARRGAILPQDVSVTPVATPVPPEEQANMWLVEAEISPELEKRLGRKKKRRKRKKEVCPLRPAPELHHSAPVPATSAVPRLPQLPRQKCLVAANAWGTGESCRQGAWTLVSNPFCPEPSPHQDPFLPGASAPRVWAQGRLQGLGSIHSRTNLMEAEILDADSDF
Assay Explanation: Gli reporter luciferase assay in NIH-3T3/Gli reporter cells stimulated with mouse Shh-N end fragment
Assay type: cell-based
Cond: NIH3T3; 1 μM compound; NIH-3T3/Gli reporter cells with mouse Shh-N culture supernatant, 48 hr; luciferase activity, control without compound as 100; read-out: inhibitory rate (%) at 1 μM
Reported Metric: inhibition at 1 µM (%)

CCc1nc2c(c(OCC(F)(F)F)c(C(=O)NC3CCN(C(=O)CO)CC3)n2C)c(=O)n1CC(=O)c1ccccc1 | 97
Cc1nc2c(c(OCC(F)(F)F)c(C(=O)NC3CCN(C(=O)CO)CC3)n2C)c(=O)n1Cc1ccccc1 | 98
Cc1nc2c(c(OCC(F)(F)F)c(C(=O)NC3CCN(C(=O)CO)CC3)n2C)c(=O)n1CCc1ccc(F)cc1 | 97
CCOc1c(C(=O)NC2CCN(C(=O)CO)CC2)n(C)c2nc(C)n(CC(=O)c3ccccc3)c(=O)c12 | 95
